System: UACC-62 melanoma
test.protocol: NCI tumour cell line growth inhibition, 48 h
measured.endpoint: TGI

[Q] Sample Cc1cc(Cl)ccc1C(=O)c1ccc2ccccc2c1C(=O)O — what was its TGI?
[A] > 100 µM

[Q] Next: C=Cn1c([N+](=O)[O-])cnc1/C=C/c1ccc(C(=O)OCCN2CCOCC2)cc1
[A] > 100 µM

[Q] Next: Cn1cc(C2=C(Nc3ccccc3)C(=O)NC2=O)c2ccccc21
[A] > 25 µM

[Q] Next: CC(Oc1ccccc1)C(=O)NNC(=O)OC(C)(C)C (centres undefined)
[A] > 100 µM

[Q] Next: NC(=O)CC(N=Cc1nc(-c2ccccc2)oc1O)C(=O)O (centres undefined)
[A] > 100 µM

[Q] Next: CC(=O)OCC1OC(n2c(Br)nc3c2c(=O)n(C)c(=O)n3C)C(OC(C)=O)C1OC(C)=O (centres undefined)
[A] > 100 µM

[Q] Next: Cc1nc2sc(C(=O)c3ccc(Cl)cc3)c(N)c2c(-c2ccccc2Cl)c1C(=O)Nc1ccccc1
[A] 29.6 µM

[Q] Next: COC(=O)C(C(=O)OC)C(Br)C(Br)C(Br)c1ccccc1 (centres undefined)
[A] 21.5 µM

[Q] Next: CC1OC(OC2C(O[C@H]3CC[C@@]4(C)C(=CC[C@H]5[C@@H]6C[C@@H]7O[C@]8(CC[C@@H](C)CO8)[C@@H](C)[C@@H]7[C@@]6(C)CC[C@@H]54)C3)OC(CO)C(O)C2O)C(O)C(O)C1O (some centres undefined)
[A] 2.7 µM

[Q] Next: O=c1[nH]c(NCc2ccc(Cl)cc2)nc2nc[nH]c12
[A] > 100 µM

[Q] Next: C[C@]12CC(c3ccccc3O1)C(C(=O)Nc1nc(C34CC5CC(CC(C5)C3)C4)cs1)C(=O)N2 (some centres undefined)
[A] > 100 µM

[Q] Next: O=C(/C(=C\I)c1ccccc1)c1ccccc1
[A] 12 µM

[Q] Next: COC1(CC[C@@H](C)COC2OC(CO)C(O)C(O)C2O)O[C@H]2C[C@H]3[C@@H]4CC=C5C[C@@H](OC6OC(CO)C(O)C(OC7OC(CO)C(O)C(O)C7O)C6OC6OC(C)C(O)C(O)C6O)CC[C@]5(C)[C@H]4CC[C@]3(C)[C@H]2[C@@H]1C (some centres undefined)
[A] > 35.7 µM

[Q] Next: CN(CCC(=O)/C(=C\c1ccccc1)c1ccc(Cl)cc1)Cc1ccccc1
[A] 4.37 µM

[Q] Next: CCn1c(CCl)nc2c1C(=O)c1ccccc1C2=O
[A] 3.14 µM

[Q] Next: CC([O-])=C1C(=O)c2ccccc2C1=O.CC([O-])=C1C(=O)c2ccccc2C1=O.CC[O-].CC[O-].[Ti+4]
[A] > 100 µM

[Q] Next: Cc1ccc(C2NC(=O)c3ccccc3N2)c(C)c1 (centres undefined)
[A] > 100 µM

[Q] Next: COc1ccc(C2C(=O)c3c(OC)cc(OC)cc3OC2c2cccnc2)cc1 (centres undefined)
[A] > 100 µM

[Q] Next: CC1(C)COC2=C(C1)C(=O)c1ccccc1C2=O
[A] 2.53 µM

---

Tested on: MDA-MB-231 breast
test.protocol: NCI tumour cell line growth inhibition, 48 h
Kindly supply the reported log10 of TGI values for the records listed here.
For clarity, the numbers are log10 values of TGI expressed in µM.

[Q] Sample CCCCNc1ccc(Nc2ccccc2)cc1 — what was its log10 of TGI?
[A] 1.98

[Q] Next: COc1cc2c(/C=C3/C(=O)Nc4ccc(Cl)cc43)c(Cl)[nH]c2cc1C
[A] 0.66

[Q] Next: O=[N+]([O-])c1cc2no[n+]([O-])c2cc1N1CCCCC1
[A] 1.65

[Q] Next: COc1cnc2c(c1)C(=O)c1c-2n(CCCN2CCC(O)CC2)c(=O)c2cc(Cl)ccc12
[A] 0.49

[Q] Next: O=Cc1ccc(-c2ccc(-c3nc4ccccc4s3)cc2)s1
[A] 1.89

---

System: BT-549 breast
test.protocol: NCI tumour cell line growth inhibition, 48 h
Note to self: values exactly at 30 µM are Satisfied. So TGI at or above 30 µM is Satisfied, below is Not satisfied.

[Q] Is the recorded value of TGI equal to or greater than 30 µM for this compound? Nc1nc(Cl)c(Cl)c(NCC2(O)CCC2)n1
[A] Satisfied

[Q] Next: COc1cnc2c(c1)C(=O)c1c-2n(CCCN2CCC(O)CC2)c(=O)c2cc(Cl)ccc12
[A] Not satisfied

[Q] Next: C=Cn1c([N+](=O)[O-])cnc1/C=C/c1ccc(C(=O)OCCN2CCOCC2)cc1
[A] Satisfied

[Q] Next: COc1ccc(-c2c3c(nc4n[nH]c(-c5ccc(Cl)cc5)c24)-c2ccccc2C(=O)C3=O)cc1
[A] Not satisfied

[Q] Next: CCCCOC(=O)C1CC[C@H]2[C@@H]3CCc4cc(OC(=O)c5cccc6c(=O)c7ccccc7[nH]c56)ccc4[C@H]3CC[C@]12C (stereo not given in full)
[A] Not satisfied

[Q] Next: CC1(C)O[C@@H]2C[C@H]3[C@@H]4C[C@H](F)C5=CC(=O)C=C[C@]5(C)[C@@]4(F)[C@@H](O)C[C@]3(C)[C@]2(C(=O)CO)O1
[A] Satisfied

[Q] Next: CCCCOC1OC(COC(=O)C(C)C)C(OC(=O)C(C)C)C(O)C1OC1OC(C)C(OC(=O)CCC)C(OC(=O)C(C)C)C1O (stereo not given)
[A] Satisfied

[Q] Next: O=C1CN(c2cccc(Cl)c2)C(=O)CN1NCNN1CC(=O)N(c2cccc(Cl)c2)CC1=O
[A] Satisfied

[Q] Next: CCN1CCC(CNC(=O)c2ccc(N)cc2)N1CC (stereo not given)
[A] Satisfied

[Q] Next: CSc1nc(N)c2c(-c3ccccc3)c3c(nc2n1)CCCC3
[A] Satisfied

[Q] Next: CN1CCN(c2nc(-c3csc(-c4cccs4)n3)cc3ccccc23)CC1
[A] Not satisfied

[Q] Next: CC(=O)NC1=NC(=O)/C(=C/c2ccc(/C=C3/C(=O)N=C(NC(C)=O)N3C)cc2)N1C
[A] Satisfied

[Q] Next: O=C1N(Cc2ccccc2Cl)c2ccccc2C12NN=C(c1cccc(Cl)c1)S2 (stereo not given)
[A] Not satisfied

[Q] Next: COC(=O)Nc1nc2ccc(S(=O)(=O)N3CCOCC3)cc2[nH]1
[A] Satisfied

[Q] Next: COc1ccc(C(=O)c2sc3nc(-c4cccs4)ccc3c2N)cc1OC
[A] Satisfied

[Q] Next: CC1=Nc2c([nH]c(=S)[nH]c2=O)NC(c2c(Cl)cccc2Cl)C1 (stereo not given)
[A] Not satisfied

[Q] Next: O=C(CC1C=Cc2ccccc2N1C(=O)c1ccccc1)c1ccccc1 (stereo not given)
[A] Satisfied

[Q] Next: CCn1c(CCl)nc2c1C(=O)c1ccccc1C2=O
[A] Not satisfied

[Q] Next: Cc1ccc2nc(-c3ccc(C(C)(C)C)cc3)oc(=O)c2c1
[A] Satisfied

---

Test system: OVCAR-3 ovarian
test.protocol: NCI tumour cell line growth inhibition, 48 h
Kindly supply the reported TGI values for the records listed here.

[Q] Sample NC(=O)c1sc(-n2cnc3cc(C(F)(F)F)ccc32)cc1OCc1ccccc1Br — what was its TGI?
[A] > 25 µM

[Q] Next: O=c1c(Cc2ccc(Cl)cc2)nnc2sc(-c3ccc(-c4ccc(Cl)cc4Cl)o3)nn12
[A] > 100 µM

[Q] Next: O=C1c2cccnc2C(=O)c2c1c(C(=O)OCCCN1CCCCC1)c1ccccn21
[A] 0.156 µM

[Q] Next: COc1cc2c(/C=C3/C(=O)N(C)c4ccc(O)cc43)c(Cl)[nH]c2cc1C
[A] 0.597 µM

[Q] Next: O=c1cccc(-c2cccc(=O)[nH]2)[nH]1
[A] > 100 µM

[Q] Next: c1ccc2c(c1)cc1n2CCc2c-1[nH]c1ccccc21
[A] > 10 µM

[Q] Next: CCCCCCCCCCCCCC[n+]1ccc(C)cc1
[A] 1.28 µM

[Q] Next: Cc1c2c(c(C)c3c1[nH]c1ccccc13)CN(C)CC2
[A] 52.7 µM

[Q] Next: O=C(CCCN1CCC(C(O)c2ccc(F)cc2)CC1)c1ccc(F)cc1 (configuration not stated)
[A] 116 µM

[Q] Next: COc1ccc(C(=O)c2sc3nc(-c4cccs4)ccc3c2N)cc1OC
[A] > 100 µM

[Q] Next: C#CCN(Cc1ccc2nc(-c3ccccc3)c(N)nc2c1)c1cc(OC)c(OC)c(OC)c1
[A] 59 µM

[Q] Next: O=[N+]([O-])c1cc([N+](=O)[O-])c(Cl)cc1Cl
[A] 2.73 µM

[Q] Next: O=C(Cn1c(C(=O)c2ccccc2)nc2ccccc21)c1ccccc1
[A] > 100 µM

[Q] Next: CC(C)(C)OC(=O)NCc1cccc(N=C=S)c1
[A] 31.2 µM

[Q] Next: C[C@@H]1CC(=O)C[C@@H]2CC[C@H]3[C@@H]4CC[C@H](OC(=O)c5cccc6cc7ccccc7nc56)[C@H]4CC[C@@H]3[C@H]21
[A] 29.8 µM

[Q] Next: Cc1nc2sc(C(=O)c3ccc(Cl)cc3)c(N)c2c(-c2ccccc2Cl)c1C(=O)Nc1ccccc1
[A] 33.9 µM

[Q] Next: OCCN(CCO)c1cccc(N(CCO)CCO)n1
[A] > 100 µM

[Q] Next: CCOC(=O)/C=C(\C(=O)OCC)n1cc(C)c(=O)n(Cc2cnnn2COCCOC(C)=O)c1=O
[A] 26 µM

[Q] Next: CCN1C(=NCCO)NS(=O)(=O)c2ccccc21
[A] > 100 µM

[Q] Next: O=C(O)/C=C/c1c[nH]c(=O)[nH]c1=O
[A] > 500 µM

[Q] Next: CCc1c(-c2ccc(OC)cc2)oc(OC)c(C)c1=O
[A] > 100 µM

[Q] Next: Cl.Fc1c[c-]c(-c2ccccn2)c(F)c1.[Pt].c1ccc([PH+](C[PH+](c2ccccc2)c2ccccc2)c2ccccc2)cc1
[A] 0.442 µM
